Molecular target: T1, human a-PD-L1 Fc (Sino Biological, 10084-H02H, LC11NO2402) (human, UniProt Q9NZQ7 19-239)
T1 construct: Bought Fc fusion immobilised on the SPR chip; Printed as 'a-PD-L1 Fc' but used as the antigen (ligand) for the anti-PD-L1 scFvs; also called Human PD-L1; not shown: Fc part
T1 sequence (Q9NZQ7 19-239 limits assumed): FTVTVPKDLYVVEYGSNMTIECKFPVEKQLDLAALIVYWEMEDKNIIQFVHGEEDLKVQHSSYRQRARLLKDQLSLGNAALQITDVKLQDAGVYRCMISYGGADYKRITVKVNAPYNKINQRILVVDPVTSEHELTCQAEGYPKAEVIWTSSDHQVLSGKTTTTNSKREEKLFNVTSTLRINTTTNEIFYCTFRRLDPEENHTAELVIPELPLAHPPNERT
Assay: SPR, PD-L1 Fc immobilised, scFv analyte, 1:1 fit
Protocol: The mutation variants were then injected at concentrations of 10 nM, 2 nM and 0.4 nM over the ligand-immobilized and reference spots. The wild type variants were used as a control, while an empty spot was used as reference. After each cycle with analyte, the surface was regenerated with a 3M MgCl₂ solution, thereby allowing the next analyte cycle to have only free ligand available. […]
Kindly state pKd for each of the entries shown.
Give bare numbers, as −log10 of the molar value.

PRO2987 (scFv 37-20-B03-sc09.1_(P15A)) (scFv, PRO2230 variant; VH substitution, AHo numbering; also called PRO2230 P15A) scFv: DIQMTQSPASLSASVGDRVTITCQASQSIGTYLAWYQQKPGKPPKLLIYRAFILASGVPSRFSGSGSGTDFTLTISSLQPEDFATYYCQSNFYSDSTTIGPNAFGTGTKVTVLGGGGGSGGGGSGGGGSGGGGSEVQLVESGGGLVQAGGSLRLSCAASGFSFNSDYWIYWVRQAPGKGLEWIASIYGGSSGNTQYASWAQGRFTISRDNSKNTVYLQMNSLRAEDTAVYFCARGYVDYGGATDLWGQGTLVTVSS ... 10.32
PRO2935 (scFv 37-20-B03-sc09.1_(L144A, S148N)) (scFv, PRO2230 variant; VH substitutions, AHo numbering; also called PRO2230 L144A-S148N) scFv: DIQMTQSPASLSASVGDRVTITCQASQSIGTYLAWYQQKPGKPPKLLIYRAFILASGVPSRFSGSGSGTDFTLTISSLQPEDFATYYCQSNFYSDSTTIGPNAFGTGTKVTVLGGGGGSGGGGSGGGGSGGGGSEVQLVESGGGLVQPGGSLRLSCAASGFSFNSDYWIYWVRQAPGKGLEWIASIYGGSSGNTQYASWAQGRFTISRDNSKNTVYLQMNSLRAEDTAVYFCARGYVDYGGATDLWGQGTAVTVNS ... 10.04

Dear reader, for each entry below, please note its pKd.
1. PRO3340 (scFv 37-20-B03-sc09.1_(T101S, T146K)) (scFv, PRO2230 variant; VH substitutions, AHo numbering; also called PRO2230 T101S-T146K) scFv: DIQMTQSPASLSASVGDRVTITCQASQSIGTYLAWYQQKPGKPPKLLIYRAFILASGVPSRFSGSGSGTDFTLTISSLQPEDFATYYCQSNFYSDSTTIGPNAFGTGTKVTVLGGGGGSGGGGSGGGGSGGGGSEVQLVESGGGLVQPGGSLRLSCAASGFSFNSDYWIYWVRQAPGKGLEWIASIYGGSSGNTQYASWAQGRFTISRDNSKNTVYLQMNSLRAEDSAVYFCARGYVDYGGATDLWGQGTLVKVSS
2. PRO2949 (scFv 37-20-B03-sc09.1_(T146E)) (scFv, PRO2230 variant; VH substitution, AHo numbering; also called PRO2230 T146E) scFv: DIQMTQSPASLSASVGDRVTITCQASQSIGTYLAWYQQKPGKPPKLLIYRAFILASGVPSRFSGSGSGTDFTLTISSLQPEDFATYYCQSNFYSDSTTIGPNAFGTGTKVTVLGGGGGSGGGGSGGGGSGGGGSEVQLVESGGGLVQPGGSLRLSCAASGFSFNSDYWIYWVRQAPGKGLEWIASIYGGSSGNTQYASWAQGRFTISRDNSKNTVYLQMNSLRAEDTAVYFCARGYVDYGGATDLWGQGTLVEVSS

10.25
10.25
